Known melting point of a selection of compounds
PARAMETER: melting point

# COMPOUND, OBS VALUE
rows = [
    ("COC(=O)c1cc(Cl)ccc1NC(=O)c1cc(OC)c(OC)c(OC)c1", "179 to 180 °C"),
    ("Cc1ccc(Sc2ccccc2C(=O)N(C)C)c([N+](=O)[O-])c1", "105 to 106 °C"),
    ("CON=C1c2ccccc2-c2c(N3CCNCC3)nc3ccccc3c21", "149 to 150 °C"),
    ("CCOC(=O)C=C(C)Nc1cc(C)ccc1C", "67 °C"),
    ("COC(=O)C=Cc1ccc(OCCc2nc(-c3ccccc3)oc2C)nc1", "138 to 139 °C"),
    ("Fc1ccc(CNc2ccc(-n3nc(C(F)(F)F)cc3C(F)(F)F)cc2)cc1", "92 to 94 °C"),
    ("CCOC(=O)c1cnc2c([N+](=O)[O-])cccc2c1N(C)C", "76 to 77 °C"),
    ("COc1ccc(S(=O)(=O)N2C(=O)C(c3ccccc3OC)(N3CCC[C@H]3C(=O)OC(C)(C)C)c3cc(Cl)ccc32)c(OC)c1 (some centres undefined)", "136 °C"),
    ("COc1ccc(Cn2nnnc2C(O)c2ccccc2C)cc1 (racemic)", "90 to 92 °C"),
]
